Listing of recorded melting point by entry.

Example entries and their recorded answers appear below.
O=C(c1ccc(O)cc1)c1sc2cc(O)ccc2c1-c1ccccc1 ... 198 to 200 °C
O=C1c2ccccc2CN1c1ccc2c(c1)OCCO2 ... 170 to 176 °C
CCOC(=O)COc1ccc(N)c(C)c1 ... 198 to 200 °C
CCCOc1ccc(-c2scc(-c3ccccc3)c2CC(=O)NC(=N)N)cc1 ... 94 to 95 °C

Moving on to another compound below.
Recorded melting point (compound O=C(Nc1ccccn1)c1cn(-c2ccccc2)c2ccccc2c1=O ): 238 to 240 °C

###

Listing of recorded melting point by entry.

COc1ccc(-c2cc3ccccc3[nH]2)cc1NC(=S)N[C@H](C)c1ccccc1 ... 179 to 181 °C
CN1CCN(C(=O)c2cc(=O)c3c(OCCOc4ccccc4)cccc3o2)CC1 ... 90 to 91.5 °C
N#Cc1cnc2c(Br)cccc2c1O ... > 260 °C
C[C@H]1[C@H](O)C(F)(F)C(=O)N1c1ccc(C#N)c(Cl)c1 ... 133 to 139 °C
O=C1COCC2=C1C(c1ccc(F)c(I)c1)C1=C(CCS1(=O)=O)N2 (stereo not given) ... > 260 °C
O=C(O)c1cccc(CN2CCC(c3cn(Cc4cccs4)c4ccccc34)CC2)c1 ... 228 to 229 °C
CCOC(=O)C1=C(C)Nc2n[nH]cc2C1c1ccccc1C(F)(F)F (stereo not given) ... 259 to 262 °C
CC(C)(C(=O)NC1CCCCC1)c1ccc(S(=O)(=O)/C=C/C#N)cc1 ... 191 to 193 °C
NCc1ccc(C(=O)O)cc1[N+](=O)[O-] ... 235 to 237 °C

Moving on to another compound below.
Recorded melting point (compound O=S(Cc1ccccc1NC1CCCC1)c1nc2ncccc2[nH]1 (stereo not given) ): 134 °C

###

Listing of recorded melting point by entry.

Example entries and their recorded answers appear below.
CCCn1c(=O)c2c(NC)n[nH]c2n(Cc2cccc(Cl)c2)c1=O ... 263 to 265 °C
Nc1ncnc2c1nc(Sc1cc3c(cc1Br)OCO3)n2CCCCCC(=O)NO ... 160 to 169 °C
COC(=O)NC1CCC(Nc2ncc3ncnc(Nc4ccc(F)c(Cl)c4)c3n2)CC1 (stereo unspecified) ... 230 to 235 °C
COc1ccc(Nc2nc(Cl)nc(NCCCO)n2)cc1 ... 155 to 159 °C

Recorded melting point (compound CC(=O)SCSc1ncn(C(c2ccccc2)(c2ccccc2)c2ccccc2)n1 ): 124 to 125 °C

Recorded melting point (compound C#CCOc1ccc(-c2nc3cnccc3[nH]2)c(OC)c1 ): 210 °C

Recorded melting point (compound COc1cc2oc(=O)c3c(c2cc1NC(C)=O)CCN(CC(C)=O)C3 ): 210 to 215 °C

Recorded melting point (compound COc1ccc(-c2cncc(OC3SCC(O)C(O)C3O)c2)c(OC)c1 (stereo unspecified) ): 184 °C

Recorded melting point (compound CCN(CC)CC(C)N1c2ccccc2Sc2ccc(C(=S)NCCC(C)C)cc21 (racemic) ): 80 °C

Recorded melting point (compound N#Cc1c(I)c(C(=O)Cl)c(I)c(C(=O)NCC(O)CO)c1I (stereo unspecified) ): 285 to 288 °C

Recorded melting point (compound COC(C(N)=O)(C(N)=O)c1ccc(Cl)c(Cl)c1 ): 211 to 213 °C

Recorded melting point (compound O=C(COc1ccc(C(=O)OCc2ccccc2)cc1)NN=C1C(=O)Nc2ccc(I)cc21 ): 221 °C

Recorded melting point (compound COC(=O)COCc1cc2cc(Cl)ccc2n1S(=O)(=O)c1ccccc1 ): 98 to 100 °C

Recorded melting point (compound OCCN1CCN(Cc2nnc3n2-c2ccc(Cl)cc2C(c2ccccc2)=NC3)CC1 ): 113 to 118 °C

Recorded melting point (compound CCOC(=O)c1cc(C(C)(C)C)n(-c2ccc(S(C)(=O)=O)cc2)n1 ): 175 to 178 °C

Recorded melting point (compound CC/C(=C\CCC(O)(CC)CC)c1cc(CCc2ccc(CO)c(CO)c2)cs1 ): 85 to 86 °C

Recorded melting point (compound Clc1cc(Br)ccc1OCc1ccccc1 ): 59.5 to 60 °C

Recorded melting point (compound [N-]=[N+]=NC1CCc2ccccc2C1NC(=O)OCc1ccccc1 (stereo unspecified) ): 104 °C
